Compiled notes: published pKi values involving Procathepsin L (Homo sapiens).
pKi: −log10 of the molar value.
Hi, to clarify the labels: condition met covers pKi from 7 upward, condition not met covers anything below 7.

Please check the record NC(=O)C(=O)C1(NC(=O)[C@H](CC2(F)CCCC2)NC(=O)c2ccc(F)cc2F)CCC1 and state if its pKi is at or above 7.
condition not met

// same read-out, input: CCC(C)C(NC(=O)C(CC(C)C)NC(=O)OCc1ccccc1)C(=O)C(=O)NC(CCC(N)=O)C(=O)NC(Cc1ccc2ccccc2c1)C(N)=O (centres unmarked)
condition met

// same read-out, input: COc1cccc(C(=O)N[C@@H](CC2CCCCC2)C(=O)N[C@@H](CN2CCOCC2)CN2CCc3cc(F)ccc32)c1
condition met

// same read-out, input: NC(=O)C(=O)[C@]1(NC(=O)[C@H](CC2(F)CCCC2)NC(=O)c2cccc(-n3ccnc3)c2)C[C@H](F)C1
condition not met

###

Compiled notes: published pKi values involving Procathepsin L (Homo sapiens).
In textbook form, pKi equals minus log to base ten of the concentration in mol/L.

Consider the following illustrative entries.
1. CCC(=O)N[C@@H](CC1(C)CCCC1)C(=O)NC1(C(=O)C(N)=O)CCC1 ... 4.92
2. CCN(CC)C(=O)N[C@@H](CC1(C)CCCC1)C(=O)N[C@]1(C(=O)C(=O)Nc2ccn(C)n2)C[C@@H](F)C1 ... 6.07
3. CCC(C)C(NC(=O)C(CC(N)=O)NC(=O)Cc1ccccc1)C(=O)C(=O)NCC(=O)NC(Cc1ccc2ccccc2c1)C(N)=O (stereo not shown) ... 7.00
4. O=C(NC1(C(=O)N[C@H]2CCCN(S(=O)(=O)c3ccccn3)CC2=O)CCCCC1)c1cc2sccc2s1 (racemic) ... 6.57

Please turn your attention to the following entry.
Reported pKi, compound CCC(C)C(NC(=O)C(CC1CC1)NC(=O)Cc1ccccc1)C(=O)C(=O)NCC(=O)NC(Cc1ccc2ccccc2c1)C(N)=O (stereo not shown) : ____
8.94

###

Compiled notes: published Ki values involving Procathepsin L (Homo sapiens, UniProt P07711).
Quick reminder: number only, in nM, skip the unit.

Consider the following illustrative entries.
1. COC(=O)N[C@@H](CC1(C)CCCC1)C(=O)N[C@]1(C(=O)C(=O)Nc2ccn(C)n2)C[C@@H](F)C1 ... 4800
2. CCC(C)C(NC(=O)C(CC(C)C)NC(=O)OCc1ccccc1)C(=O)C(=O)NCC(=O)NC(Cc1ccc(F)cc1)C(N)=O (stereo not shown) ... 2.11
3. CCC(C)C(NC(=O)C(=O)C(C)NC(=O)C(Cc1ccccc1)NC(=O)Cc1ccccc1)C(=O)NC(C)(C)C(=O)O (stereo not shown) ... 816

Please turn your attention to the following entry.
Reported Ki, molecule CCC[C@H](NC(=O)O[C@@H](CC1CCCCC1)C(=O)N1CCCC1)C(=O)c1nc2ccccc2o1 : ____
2030

###

pKi: −log10 of the molar value.
Compiled notes: published pKi values involving Procathepsin L (Homo sapiens, UniProt P07711).
Hi, to clarify the labels: condition met covers pKi from 7 upward, condition not met covers anything below 7.

1. Cn1ccc(NC(=O)C(=O)[C@]2(NC(=O)[C@H](CC3(C)CCCC3)NC(=O)N3CCCC3)C[C@H](F)C2)n1 ... condition not met
2. CCC[C@H](NC(=O)O[C@@H](CC1CCCCC1)C(=O)N1CCOCC1)C(=O)c1nc2cc(F)ccc2o1 ... condition not met
3. CCC(C)C(NC(=O)C(=O)C(C)NC(=O)C(Cc1cccc(C#N)c1)NC(=O)Cc1ccccc1)C(=O)NC(C)(C)C(=O)O (centres unmarked) ... condition not met
4. CCC(C)C(NC(=O)C(=O)C(Cc1ccccc1)NC(=O)C(Cc1ccccc1)NC(=O)Cc1ccccc1)C(=O)NC(C)(C)C(=O)O (centres unmarked) ... condition met
5. CC(C)C[C@H](CC(=O)n1ccc(-c2ccccc2)c1)C(=O)N[C@@H]1C(=O)CO[C@@H]1C ... condition not met

Please check the record CCCC(NC(=O)C(=O)C(C)NC(=O)C(Cc1ccccc1)NC(=O)Cc1ccccc1)C(=O)NC(C)(C)C(N)=O (centres unmarked) and state if its pKi is at or above 7.
condition not met

// same read-out, input: CCC(C)C(NC(=O)C(CC(C)C)NC(=O)NCc1ccccc1)C(=O)C(=O)NCC(=O)NC(Cc1ccc2ccccc2c1)C(N)=O (centres unmarked)
condition met

// same read-out, input: Cc1cccc(C(=O)N[C@@H](CC2CCCCC2)C(=O)NCCN2CCc3cc(F)ccc32)c1
condition met

###

Compiled notes: published pKi values involving Procathepsin L (Homo sapiens, UniProt P07711).
In textbook form, pKi equals minus log to base ten of the concentration in mol/L.

1) CCC(C)C(NC(=O)C(CC(C)C)NC(=O)OCc1ccccc1)C(=O)C(=O)NC(Cc1cnc[nH]1)C(=O)NC(Cc1ccc2ccccc2c1)C(N)=O (centres unmarked) ... 8.60
2) CCNC(=O)N[C@@H](CC1(F)CCCC1)C(=O)NC1(C(=O)C(=O)Nc2ccn(C)n2)CCC1 ... 5.68
3) Cn1ccc(NC(=O)C(=O)C2(NC(=O)C(CC3(C)CCC3)NC(=O)OC(C)(C)C)CC(F)C2)n1 (centres unmarked) ... 6.48
4) CCC(C)C(NC(=O)C(=O)C(C)NC(=O)[C@H](Cc1cncs1)NC(=O)Cc1ccccc1)C(=O)NC(C)(C)C(=O)O (some centres unmarked) ... 5.48
5) CCC(C)C(NC(=O)C(Cc1c[nH]cn1)NC(=O)Cc1ccccc1)C(=O)C(=O)NCC(=O)NC(Cc1ccc2ccccc2c1)C(N)=O (centres unmarked) ... 6.02

Reported pKi, compound CCC(C)C(NC(=O)C(CC(C)C)NC(=O)OCc1ccccc1)C(=O)C(=O)NC(CCCNC(=N)N)C(=O)NC(Cc1ccc2ccccc2c1)C(N)=O (centres unmarked) : ____
8.57

// same read-out, input: COC1CC(NC(=O)[C@H](CC2(F)CCCC2)NC(=O)OC(C)(C)C)(C(=O)C(=O)Nc2ccn(C)n2)C1 (some centres unmarked)
6.18

// same read-out, input: CCC(C)C(NC(=O)C(CC(C)C)NC(=O)Cc1cccnc1)C(=O)C(=O)NCC(=O)N(C)C(Cc1ccccc1)C(N)=O (centres unmarked)
9.35

// same read-out, input: CCC(C)C(NC(=O)C(CC(C)C)NC(=O)OCc1ccccc1)C(=O)C(=O)NC(CC(N)=O)Cc1ccccc1 (centres unmarked)
7.22

###

Compiled notes: published pKi values involving Procathepsin L (Homo sapiens, UniProt P07711).
In textbook form, pKi equals minus log to base ten of the concentration in mol/L.

1. Cn1ccc(NC(=O)C(=O)C2(NC(=O)[C@H](CC3(C)CCCC3)NC(=O)N3CCOCC3)CCC2)n1 ... 6.22

Reported pKi, molecule CC[C@H](NC(=O)O[C@@H](CC1CCCCC1)C(=O)N1CCOCC1)C(=O)c1nc2ccc(C)cc2o1 : ____
5.66

// same read-out, input: Cn1ccc(NC(=O)C(=O)C2(NC(=O)[C@H](CC3(F)CCCC3)NC(=O)OC(C)(C)C)CCC2)n1
6.57

// same read-out, input: CCC(C)C(NC(=O)C(CC(C)C)NC(=O)OCc1ccccc1)C(=O)C(=O)NC(CCCNC(N)=O)C(=O)NC(Cc1ccc2ccccc2c1)C(N)=O (centres unmarked)
9.33

// same read-out, input: CCC(C)C(NC(=O)C(=O)C(C)NC(=O)C(Cc1ccc(-c2ccccc2)cc1)NC(=O)Cc1ccccc1)C(=O)NC(C)(C)C(=O)O (centres unmarked)
6.34

// same read-out, input: CCC(C)C(NC(=O)C(CC(C)C)NC(=O)OCc1ccccc1)C(=O)C(=O)NC(CC(N)=O)C(=O)NC(Cc1ccc2ccccc2c1)C(N)=O (centres unmarked)
8.48

###

Compiled notes: published pKi values involving Procathepsin L (Homo sapiens, UniProt P07711).
In textbook form, pKi equals minus log to base ten of the concentration in mol/L.

Consider the following illustrative entries.
1) O=C(N[C@@H](Cc1ccc(O)cc1)C(=O)N1CC[C@H]2OCC(=O)[C@H]21)c1cccc2ccccc12 ... 6.10
2) Cn1ccc(NC(=O)C(=O)C2(NC(=O)C(CC3CCCC3)NC(=O)OC(C)(C)C)CC(F)C2)n1 (stereo not drawn) ... 6.07
3) NC(=O)C(=O)C1(NC(=O)[C@H](CC2(F)CCCC2)NC(=O)C2(C(F)(F)F)CC2)CCC1 ... 4.85
4) CCOC(=O)N[C@@H](CC1(F)CCCC1)C(=O)NC1(C(=O)C(N)=O)CCCC1 ... 4.68
5) Cn1ccc(NC(=O)C(=O)C2(NC(=O)[C@H](CC3CCCCC3)NC(=O)N3CCOCC3)CC(F)(F)C2)n1 ... 6.70

# query: pKi | item CC(NC(=O)C(Cc1ccccc1)NC(=O)Cc1ccccc1)C(=O)C(=O)NC(Cc1ccc(C(C)(C)C)cc1)C(=O)NC(C)(C)C(=O)O (stereo not drawn) | system: Procathepsin L (Homo sapiens, UniProt P07711)
6.90

// same read-out, input: CCC(C)C(NC(=O)C(=O)C(C)NC(=O)C(Cc1ccc(C(C)(C)C)cc1)NC(=O)Cc1ccccc1)C(=O)NC(C)(C)C(=O)O (stereo not drawn)
5.59

// same read-out, input: CCC(C)C(C(=O)C(=O)NCC(=O)NC(Cc1ccc2ccccc2c1)C(N)=O)N(C)C(=O)C(CC(C)C)NC(=O)OCc1ccccc1 (stereo not drawn)
6.04

// same read-out, input: COC1CC(NC(=O)[C@H](CC2(C)CCCC2)NC(=O)CCl)(C(=O)C(=O)NC2CC2)C1 (stereo partly drawn)
4.60

// same read-out, input: CCC(C)C(NC(=O)C(CC(C)C)NC(=O)OCc1ccccc1)C(=O)C(=O)N1CC(C(=O)NCc2ccc3ccccc3c2)C1 (stereo not drawn)
7.71

// same read-out, input: CCC(C)C(NC(=O)C(CC(C)(C)C)NC(=O)Cc1ccccc1)C(=O)C(=O)NCC(=O)NC(Cc1ccc2ccccc2c1)C(N)=O (stereo not drawn)
8.78

// same read-out, input: CC[C@H](C)C(NC(=O)[C@H](CC(C)C)NC(=O)OCc1ccccc1)C(=O)C(=O)NCC(=O)N[C@H](Cc1ccc2ccccc2c1)C(N)=O (stereo partly drawn)
9.22
